For each entry below, report its Ki value.
Study Target: Sigma 2 receptor
Test Details: Binding affinity for sigma-2 receptor by displacing [3H]DTG in presence of dextrallorphan
Express your answer in nM, writing the number without its unit.

Asked: Notebook entry, Sigma 2 receptor assay: Ki of CC1CCCN(CCCc2ccccc2)C1 (stereo not given) = ?
Given back: 6.61

Asked: Reported Ki for Sigma 2 receptor, given c1ccc(CCN2CCc3ccccc3C2)cc1 ?
Given back: 57.3

Asked: Notebook entry, Sigma 2 receptor assay: Ki of c1ccc(CCCN2CCc3ccccc3C2)cc1 = ?
Given back: 14.2

Asked: Param readout= Ki; system= Sigma 2 receptor; entry= c1ccc(CCCN2CCCCC2)cc1 ; returns value.
Given back: 25

Asked: For the record c1ccc(CCN2CCN(c3ccccn3)CC2)cc1 , what value of Ki is listed for Sigma 2 receptor?
Given back: 119

Asked: Sigma 2 receptor / Ki / CC1CCN(CCCc2ccccc2)CC1 : value?
Given back: 12.1

Asked: What reported Ki corresponds to CC1CCCN(CCc2ccccc2)C1 (stereo not given) on Sigma 2 receptor?
Given back: 84.4

Asked: Lab request: please report Ki under test system Sigma 2 receptor for c1ccc(CCCN2CCN(c3ccccn3)CC2)cc1
Given back: 4.91

Asked: Identify the measured Ki of c1ccc(CCN2CCCCC2)cc1 [1-PHENETHYLPIPERIDINE] for Sigma 2 receptor.
Given back: 112

Asked: Which measured Ki belongs to CC1CCN(CCc2ccccc2)CC1 , tested on Sigma 2 receptor?
Given back: 33.3
